tested on: Ovsaho; assay: drug sensitivity score (DSS) from 5-point dose-response viability curve (DSS (area-under-curve based score)); higher = more sensitive (stronger growth inhibition or killing); extreme values may be limits of the assay; settings: exposure time: 72 h; concentration range: 5 concentrations over 10,000-fold range
Items are presented alongside their recorded drug sensitivity score.
Answer with a bare number; do not write a unit.

[
  {
    "compound": "Nc1ccccc1NC(=O)c1ccc(CNc2nccc(-c3cccnc3)n2)cc1",
    "drug sensitivity score": 7.8
  }
]

q: Find the measured drug sensitivity score of CC1(C)NC(=O)N(c2ccc([N+](=O)[O-])c(C(F)(F)F)c2)C1=O [Nilutamide] with Ovsaho as test system.
a: 0

q: Find the measured drug sensitivity score of CC(=O)Nc1cccc(-n2c(=O)n(C3CC3)c(=O)c3c(Nc4ccc(I)cc4F)n(C)c(=O)c(C)c32)c1 with Ovsaho as test system.
a: 12.4

q: Find the measured drug sensitivity score of CNC(=O)c1ccccc1Sc1ccc2c(/C=C/c3ccccn3)n[nH]c2c1 with Ovsaho as test system.
a: 0.8

====

test system: COV318; assay: drug sensitivity score (DSS) from 5-point dose-response viability curve (DSS (area-under-curve based score)); higher = more sensitive (stronger growth inhibition or killing); extreme values may be limits of the assay; settings: exposure time: 72 h; concentration range: 5 concentrations over 10,000-fold range
Items are presented alongside their recorded drug sensitivity score.
Answer with a bare number; do not write a unit.

Some solved cases for reference:
[
  {
    "molecule": "CC[C@H](Nc1ncnc2[nH]cnc12)c1nc2cccc(F)c2c(=O)n1-c1ccccc1 [Idelalisib]",
    "endpoint result": 0.7
  },
  {
    "molecule": "O=C(Nc1ccc2[nH]nc(-c3ccncc3)c2c1)[C@@H]1CCN(CC(=O)N2CCN(c3ccc(-c4ncccn4)cc3)CC2)C1",
    "endpoint result": 0
  },
  {
    "molecule": "O=C(O)CC1CC(c2ccccc2)=NO1 (stereo unspecified) [VGX-1027]",
    "endpoint result": 0
  },
  {
    "molecule": "C[C@@H]1COC(Nc2ccc3ncnc(Nc4ccc(OCc5nccs5)c(Cl)c4)c3c2)=N1 [Varlitinib]",
    "endpoint result": 0
  },
  {
    "molecule": "COc1cccc2c1C(=O)c1c(O)c3c(c(O)c1C2=O)C[C@@](O)(C(=O)CO)C[C@@H]3O[C@H]1C[C@H](N)[C@H](O)[C@H](C)O1 [Doxorubicin]",
    "endpoint result": 3.6
  }
]

q: Please list drug sensitivity score recorded for the molecule CN1CCC(CNc2ccc3ncc(-c4cccc(OC(F)(F)F)c4)n3n2)CC1 [SGI-1776]
a: 4.7

q: Please list drug sensitivity score recorded for the molecule COc1cccc2c1C(=O)c1c(O)c3c(c(O)c1C2=O)C[C@@](O)(C(=O)CO)C[C@@H]3O[C@H]1C[C@H](N)[C@@H](O)[C@H](C)O1 [Epirubicin]
a: 0.7

q: Please list drug sensitivity score recorded for the molecule C=CC(=O)Nc1cc2c(Nc3ccc(F)c(Cl)c3)ncnc2cc1OCCCN1CCOCC1 [Canertinib]
a: 4.3

q: Please list drug sensitivity score recorded for the molecule COc1cc(OC2CCN(C)CC2)ccc1Nc1ncc2c(n1)n(C1CCCC1)c(=O)n2C [AZ 3146]
a: 2.7

q: Please list drug sensitivity score recorded for the molecule Cc1nc(=O)c2cc(CN(C)c3ccc(C(=O)N[C@@H](CCC(=O)O)C(=O)O)s3)ccc2[nH]1 [Raltitrexed]
a: 3

q: Please list drug sensitivity score recorded for the molecule Nc1cc(COc2c(Cl)cc(C[C@H](N)C(=O)O)cc2Cl)c2oc(-c3ccccc3)nc2c1 [JPH203]
a: 0

q: Please list drug sensitivity score recorded for the molecule C=CC(=O)Nc1cccc(Nc2nc(Nc3ccc(OCCOC)cc3)ncc2F)c1 [Spebrutinib]
a: 2

q: Please list drug sensitivity score recorded for the molecule CC(C)N(CCCNC(=O)Nc1ccc(C(C)(C)C)cc1)C[C@H]1O[C@@H](n2cc(Br)c3c(N)ncnc32)[C@H](O)[C@@H]1O [SGC0946]
a: 0

q: Please list drug sensitivity score recorded for the molecule C=CC(=O)N1CCC(Oc2cc3c(Nc4ccc(Cl)c(Cl)c4F)ncnc3cc2OC)CC1 [Poziotinib]
a: 0

q: Please list drug sensitivity score recorded for the molecule CCN(CC)CCOc1ccc(C(=C(Cl)c2ccccc2)c2ccccc2)cc1 [Clomifene]
a: 2.2

q: Please list drug sensitivity score recorded for the molecule O=C(O)c1ccc(CN2CCC(CN[C@@H]3C[C@H]3c3ccccc3)CC2)cc1
a: 0

====

Items are presented alongside their recorded drug sensitivity score.
tested on: OV90; experiment: drug sensitivity score (DSS) from 5-point dose-response viability curve (DSS (area-under-curve based score)); higher = more sensitive (stronger growth inhibition or killing); extreme values may be limits of the assay; conditions: exposure time: 72 h; concentration range: 5 concentrations over 10,000-fold range
Answer with a bare number; do not write a unit.

Some solved cases for reference:
[
  {
    "compound": "CCS(=O)(=O)c1cccc(-c2cc(C(=O)NC3CCN(C)CC3)c(C)c3[nH]c4ncc(C)cc4c23)c1",
    "drug sensitivity score": 4.6
  },
  {
    "compound": "N#Cc1ccnc(N2C(=O)CC[C@H]2C(=O)N(c2cncc(F)c2)[C@H](C(=O)NC2CC(F)(F)C2)c2ccccc2Cl)c1",
    "drug sensitivity score": 0.3
  },
  {
    "compound": "Cc1cnc(Nc2ccc(OCCN3CCCC3)cc2)nc1Nc1cccc(S(=O)(=O)NC(C)(C)C)c1",
    "drug sensitivity score": 8.8
  },
  {
    "compound": "CN[C@@H](C)C(=O)N[C@H](C(=O)N1CCC[C@H]1c1nc(C(=O)c2ccc(F)cc2)cs1)C1CCCCC1",
    "drug sensitivity score": 5
  },
  {
    "compound": "O=C(NC[C@H](O)CN1CCc2ccccc2C1)c1cc(NC2COC2)ncn1",
    "drug sensitivity score": 0
  },
  {
    "compound": "Cc1cc(Nc2nc(N[C@@H](C)c3ncc(F)cn3)ncc2Cl)[nH]n1",
    "drug sensitivity score": 0
  }
]

q: Please list drug sensitivity score recorded for the compound Oc1ncnc2[nH]ncc12
a: 0.3

q: Please list drug sensitivity score recorded for the compound Nc1ccn([C@@H]2O[C@H](CO)[C@@H](O)C2(F)F)c(=O)n1
a: 13.5

q: Please list drug sensitivity score recorded for the compound CCCCCCCCCCCCCCCCOP(=O)([O-])OCC[N+](C)(C)C
a: 4.1

q: Please list drug sensitivity score recorded for the compound COc1cc(CCc2cc(NC(=O)c3ccc(N4CC(C)NC(C)C4)cc3)n[nH]2)cc(OC)c1 (stereo unspecified)
a: 0

q: Please list drug sensitivity score recorded for the compound O=C(Nc1ccc(OC(F)(F)Cl)cc1)c1cnc(N2CC[C@@H](O)C2)c(-c2cc[nH]n2)c1
a: 0

q: Please list drug sensitivity score recorded for the compound N.N.[Cl][Pt][Cl] [Cisplatin]
a: 4.8

====

Items are presented alongside their recorded drug sensitivity score.
system: Kuramochi; experiment: drug sensitivity score (DSS) from 5-point dose-response viability curve (DSS (area-under-curve based score)); higher = more sensitive (stronger growth inhibition or killing); extreme values may be limits of the assay; settings: exposure time: 72 h; concentration range: 5 concentrations over 10,000-fold range
Answer with a bare number; do not write a unit.

Some solved cases for reference:
[
  {
    "compound": "CC[C@]1(O)C[C@H]2CN(CCc3c([nH]c4ccccc34)[C@@](C(=O)OC)(c3cc4c(cc3OC)N(C=O)[C@H]3[C@@](O)(C(=O)OC)[C@H](OC(C)=O)[C@]5(CC)C=CCN6CC[C@]43[C@@H]65)C2)C1 [Vincristine]",
    "drug sensitivity score": 3.1
  },
  {
    "compound": "CNC(=O)c1ccc(N2C(=S)N(c3ccc(C#N)c(C(F)(F)F)c3)C(=O)C2(C)C)cc1F [Enzalutamide]",
    "drug sensitivity score": 1.7
  },
  {
    "compound": "Cc1[nH]c2ccccc2c1CCNCc1ccc(/C=C/C(=O)NO)cc1 [Panobinostat]",
    "drug sensitivity score": 15.3
  },
  {
    "compound": "O=C(Nc1cccc(NC(=O)c2cccc(O)c2O)c1)c1cccc(O)c1O [MST-312]",
    "drug sensitivity score": 5.5
  },
  {
    "compound": "CCC1=C[C@@H]2CN(C1)Cc1c([nH]c3ccccc13)[C@@](C(=O)OC)(c1cc3c(cc1OC)N(C)[C@H]1[C@@](O)(C(=O)OC)[C@H](OC(C)=O)[C@]4(CC)C=CCN5CC[C@]31[C@@H]54)C2 [Vinorelbine]",
    "drug sensitivity score": 12.6
  },
  {
    "compound": "COCCNCc1ccc(-c2cc3nccc(Oc4ccc(NC(=O)C5(C(=O)Nc6ccc(F)cc6)CC5)cc4F)c3s2)nc1 [Sitravatinib]",
    "drug sensitivity score": 2.5
  },
  {
    "compound": "CC/C(=C(\\c1ccccc1)c1ccc(OCCN(C)C)cc1)c1ccccc1 [Tamoxifen]",
    "drug sensitivity score": 2.2
  },
  {
    "compound": "Nc1ncnc2c1nc(Cl)n2[C@@H]1O[C@H](CO)[C@@H](O)[C@H]1O [8-chloro-adenosine]",
    "drug sensitivity score": 5.1
  },
  {
    "compound": "CN1CC[C@@H](NC(=O)Nc2ccc(C#N)cc2)C[C@@H]1c1nc2ccccc2[nH]1 [Glasdegib]",
    "drug sensitivity score": 0
  },
  {
    "compound": "O=C(c1cc(Cc2n[nH]c(=O)c3ccccc23)ccc1F)N1CCN(C(=O)C2CC2)CC1 [Olaparib]",
    "drug sensitivity score": 3.4
  }
]

Okay, next one:
q: Please list drug sensitivity score recorded for the compound Nc1ccccc1NC(=O)c1ccc(CNC(=O)OCc2cccnc2)cc1 [Entinostat]
a: 3.2
